Cited source for all entries: paper PMC12670511

EXPERIMENTAL TARGET: human Nav1.7 (hNav1.7) voltage-gated sodium channel alpha subunit (Homo sapiens)
Construct: gene SCN9A; alpha subunit, stably expressed in HEK293 cells
Sequence (Q15858 whole entry): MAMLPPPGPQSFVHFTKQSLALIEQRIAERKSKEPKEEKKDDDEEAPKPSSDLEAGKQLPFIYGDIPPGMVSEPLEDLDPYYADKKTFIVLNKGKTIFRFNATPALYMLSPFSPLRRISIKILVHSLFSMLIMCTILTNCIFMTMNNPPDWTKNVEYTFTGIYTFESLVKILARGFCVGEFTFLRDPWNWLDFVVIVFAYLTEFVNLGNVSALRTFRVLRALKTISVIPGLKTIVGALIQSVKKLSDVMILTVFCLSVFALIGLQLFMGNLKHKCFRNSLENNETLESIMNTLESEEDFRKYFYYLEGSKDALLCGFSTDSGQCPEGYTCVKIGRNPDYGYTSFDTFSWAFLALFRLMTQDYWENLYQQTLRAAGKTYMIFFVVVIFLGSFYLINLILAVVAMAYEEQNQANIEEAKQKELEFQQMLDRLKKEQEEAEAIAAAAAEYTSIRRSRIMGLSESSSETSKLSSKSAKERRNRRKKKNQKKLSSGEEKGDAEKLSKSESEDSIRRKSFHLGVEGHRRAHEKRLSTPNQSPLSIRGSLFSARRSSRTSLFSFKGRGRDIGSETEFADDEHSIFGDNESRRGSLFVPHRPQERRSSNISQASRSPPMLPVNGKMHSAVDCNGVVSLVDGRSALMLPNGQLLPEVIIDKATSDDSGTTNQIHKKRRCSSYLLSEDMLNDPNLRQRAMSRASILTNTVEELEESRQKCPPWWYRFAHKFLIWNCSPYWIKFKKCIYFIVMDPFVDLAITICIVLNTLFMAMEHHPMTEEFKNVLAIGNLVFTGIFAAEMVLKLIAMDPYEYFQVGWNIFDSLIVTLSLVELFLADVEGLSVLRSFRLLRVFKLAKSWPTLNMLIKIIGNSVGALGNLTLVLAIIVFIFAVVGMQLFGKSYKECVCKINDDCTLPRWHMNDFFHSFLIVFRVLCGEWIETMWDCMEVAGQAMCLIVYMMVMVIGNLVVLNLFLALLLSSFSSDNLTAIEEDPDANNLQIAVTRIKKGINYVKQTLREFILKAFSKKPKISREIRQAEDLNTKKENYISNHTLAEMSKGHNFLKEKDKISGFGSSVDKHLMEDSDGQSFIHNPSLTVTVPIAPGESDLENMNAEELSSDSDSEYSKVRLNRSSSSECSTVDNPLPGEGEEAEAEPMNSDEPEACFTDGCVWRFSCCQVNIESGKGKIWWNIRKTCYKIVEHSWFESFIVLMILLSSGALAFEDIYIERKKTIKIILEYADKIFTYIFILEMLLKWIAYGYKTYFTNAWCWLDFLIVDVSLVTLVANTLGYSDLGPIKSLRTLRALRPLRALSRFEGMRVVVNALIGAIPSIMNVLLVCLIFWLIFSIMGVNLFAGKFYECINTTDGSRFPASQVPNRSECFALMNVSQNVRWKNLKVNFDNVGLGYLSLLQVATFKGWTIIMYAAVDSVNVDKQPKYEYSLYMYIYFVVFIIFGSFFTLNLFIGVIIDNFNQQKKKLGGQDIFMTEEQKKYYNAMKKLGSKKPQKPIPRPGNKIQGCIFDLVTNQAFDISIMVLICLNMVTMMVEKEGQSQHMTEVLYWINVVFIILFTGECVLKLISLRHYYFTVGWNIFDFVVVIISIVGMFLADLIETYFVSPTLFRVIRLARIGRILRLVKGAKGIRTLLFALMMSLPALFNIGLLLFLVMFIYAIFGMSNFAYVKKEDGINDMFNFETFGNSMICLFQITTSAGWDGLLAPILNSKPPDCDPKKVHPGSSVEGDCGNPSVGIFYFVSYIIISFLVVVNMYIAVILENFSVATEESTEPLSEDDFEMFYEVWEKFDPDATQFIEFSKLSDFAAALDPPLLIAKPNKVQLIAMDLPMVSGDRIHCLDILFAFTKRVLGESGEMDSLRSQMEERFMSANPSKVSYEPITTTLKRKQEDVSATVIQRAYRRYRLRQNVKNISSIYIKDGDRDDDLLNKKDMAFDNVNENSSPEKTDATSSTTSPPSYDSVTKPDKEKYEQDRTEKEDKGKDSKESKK
RUN DESCRIPTION: Qube automated patch-clamp electrophysiology, HEK293-hNav1.[…], inactivated state (-70 mV); also thallium flux assay IC50 […]
Assay type: cell-based
MEASURED ATTRIBUTE: pKd
Numbers only, as −log10 of the molar value.

Reported pKd, compound CCCCCCCC/C=C\CCCCCCCC(=O)OC(COC(=O)CCCCCCCCCCCCCCC)CO[C@@H]1O[C@H](CO)[C@H](O)[C@H](O)[C@H]1O (stereo partly shown) : ____
4.30

---

EXPERIMENTAL TARGET: human Nav1.7 (hNav1.7) voltage-gated sodium channel alpha subunit (Homo sapiens)
Construct: gene SCN9A; alpha subunit, stably expressed in HEK293 cells
RUN DESCRIPTION: Qube automated patch-clamp electrophysiology, HEK293-hNav1.[…], inactivated state (-70 mV)
Assay type: cell-based
MEASURED ATTRIBUTE: pKd
Answers are plain numbers, as −log10 of the molar value.

Reported pKd, compound CCCCCCCCCCCCCCCC(=O)OC[C@H](CO[C@H]1O[C@H](CS(=O)(=O)O)[C@@H](O)[C@H](O)[C@H]1O)OC(=O)CCCCCCCCCCCCCCC [compound 2, sulfoquinovosyldiacylglycerin] : ____
4.60
